The reported numbers originate from paper PMC10397247.

For each record, write down the corresponding interaction score.
Molecular target: T1, 4H3277-bA
T1 chain: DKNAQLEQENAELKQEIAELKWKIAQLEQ
Test: two-hybrid library CCNG1;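 further: natural log of median RNA to DNA barcode read ratio; higher means stronger binding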
Lab note: record the figure alone, no unit after it.

## Task For the binder DKIAQLKQENAELEQENAELKWKIAQLEQ [4H2717-bA] , give its measured interaction score value.
## Result -0.874

## Task For the binder DENAQLKQEIAELEQEIAELEWKNAQLKQ [4H1544-bA] , give its measured interaction score value.
## Result 0.243

## Task For the binder DEIAQLEQKIAELEQKNAELKWKNAQLEQ [4H319-bA] , give its measured interaction score value.
## Result -0.964

## Task For the binder DENAQLEQEIAELEQKNAELKWEIAQLEQ [4H1081-bA] , give its measured interaction score value.
## Result -0.575

## Task For the binder DKIAQLKQENAELEQEIAELEWENAQLKQ [4H2692-bA] , give its measured interaction score value.
## Result -0.458

## Task For the binder DENAQLKQKIAELKQKIAELKWENAQLEQ [4H1899-bA] , give its measured interaction score value.
## Result -1.41

## Task For the binder DKIAQLKQKIAELEQENAELEWKNAQLEQ [4H2839-bA] , give its measured interaction score value.
## Result -0.969
